molecular target: T1, VEGFR-1-Fc (UniProt P17948 27-338); assay: receptor-Fc IP
T1 construct: domain: first three Ig domains; expressed in Drosophila S2 cells, purified on Protein A sepharose; also called VEGFR-1-Fc fusion protein; not shown: Fc fragment from the Signal-pIgPlus vector
T1 sequence (P17948 27-338): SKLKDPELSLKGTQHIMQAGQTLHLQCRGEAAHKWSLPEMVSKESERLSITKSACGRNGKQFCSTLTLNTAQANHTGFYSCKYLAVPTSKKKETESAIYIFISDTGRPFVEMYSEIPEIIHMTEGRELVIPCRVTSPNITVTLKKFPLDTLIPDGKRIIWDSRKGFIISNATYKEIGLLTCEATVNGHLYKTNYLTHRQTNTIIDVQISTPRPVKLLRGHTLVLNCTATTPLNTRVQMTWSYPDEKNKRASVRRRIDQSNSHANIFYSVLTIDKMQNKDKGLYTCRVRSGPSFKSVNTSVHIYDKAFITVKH
readout_label: binding result

Sample records with binding result:
43-14 (ligand) AHYNTEILKFMDVYQRSYCHPREVCIDVGKEYPDEIEYIFKPPCVSVYRCGGCCNDEGLECMNTSTSYLSKTLFEITVPLSQGPKPVTISFANHTSCRCMSKLD: no binding
23-9 (ligand) AHYNTEILKSIDNEWRKTQCMPREVCIDVGKEYPDEIEYIFKPPCVSVYRCGGCCNDEGLECVPTEESNITMQIMRITVPLSQGPKPVTISFLQHNKCECRPKKD: no binding
32-15 (ligand) GQNHHEVVKSIDNEWRKTQCMPIETLVDIFQEFGVATNTFFKPPCVSVYRCGGCCNSEGLQCVPTEESNITMQIMRITVPLSQGPKPVTISFANHTSCRCMSKLD: no binding
43-5 (ligand) AHYNTEILKFMDVYQRSYCHPREVCIDVGKEYPDEIEYIFKPPCVSVYRCGGCCNDEGLECVPTEESNITMQIMRIKPHQGQHIGEMSFANHTSCRCMSKLD: no binding
64-11 (ligand) GQNHHEVVKFMDVYQRSYCHPREVCIDVGKEFGVATNTFFKPSCVPLMRCGGCCNSEGLQCVPTEESNITMQIMRITVPLSQGPKPVTISFLQHNKCECRPKKD: no binding
33-6 (ligand) GQNHHEVVKSIDNEWRKTQCMPIETLVDIFQEYPDEIEYIFKPPCVSVYRCGGCCNDEGLECMNTSTSYLSKTLFEIKPHQGQHIGEMSFANHTSCRCMSKLD: no binding

// query Name the recorded binding result for 74-16 (ligand) GQNHHEVVKSIDNEWRKTQCMPREVCIDVGKEFGVATNTFFKPSCVPLMRCGGCCNSEGLQCMNTSTSYLSKTLFEITVPLSQGPKPVTISFANHTSCRCMSKLD .
// result no binding

// query Name the recorded binding result for 44-13 (ligand) AHYNTEILKFMDVYQRSYCHPREVCIDVGKEFGVATNTFFKPSCVPLMRCGGCCNDEGLECVPTEESNITMQIMRITVPLSQGPKPVTISFANHTSCRCMSKLD .
// result no binding

// query Name the recorded binding result for 13-13 (ligand) GQNHHEVVKFMDVYQRSYCHPIETLVDIFQEYPDEIEYIFKPPCVSVYRCGGCCNDEGLECVPTEESNITMQIMRITVPLSQGPKPVTISFANHTSCRCMSKLD .
// result binds

// query Name the recorded binding result for 42-10 (ligand) AHYNTEILKFMDVYQRSYCHPREVCIDVGKEFGVATNTFFKPPCVSVYRCGGCCNDEGLECMNTSTSYLSKTLFEITVPLSQGPKPVTISFLQHNKCECRPKKD .
// result no binding

// query Name the recorded binding result for 72-7 (ligand) GQNHHEVVKSIDNEWRKTQCMPREVCIDVGKEFGVATNTFFKPPCVSVYRCGGCCNSEGLQCVPTEESNITMQIMRIKPHQGQHIGEMSFANHTSCRCMSKL .
// result no binding

// query Name the recorded binding result for 21-16 (ligand) AHYNTEILKSIDNEWRKTQCMPREVCIDVGKEYPDEIEYIFKPSCVPLMRCGGCCNSEGLQCMNTSTSYLSKTLFEITVPLSQGPKPVTISFANHTSCRCMSKLD .
// result no binding

// query Name the recorded binding result for 22-8 (ligand) AHYNTEILKSIDNEWRKTQCMPREVCIDVGKEFGVATNTFFKPPCVSVYRCGGCCNSEGLQCMNTSTSYLSKTLFEIKPHQGQHIGEMSFANHTSCRCMSKLD .
// result no binding

// query Name the recorded binding result for 34-7 (ligand) GQNHHEVVKSIDNEWRKTQCMPIETLVDIFQEFGVATNTFFKPSCVPLMRCGGCCNSEGLQCVPTEESNITMQIMRIKPHQGQHIGEMSFANHTSCRCMSKLD .
// result no binding

// query Name the recorded binding result for 34-1 (ligand) GQNHHEVVKSIDNEWRKTQCMPIETLVDIFQEFGVATNTFFKPSCVPLMRCGGCCNDEGLECVPTEESNITMQIMRIKPHQGQHIGEMSFLQHNKCECRPKKD .
// result no binding

// query Name the recorded binding result for 63-14 (ligand) GQNHHEVVKFMDVYQRSYCHPREVCIDVGKEYPDEIEYIFKPPCVSVYRCGGCCNDEGLECMNTSTSYLSKTLFEITVPLSQGPKPVTISFANHTSCRCMSKLD .
// result no binding
